- Target: T1, soluble TDP-43 (human, UniProt Q13148 1-414)
- T1 construct: also called soluble full-length TDP-43; FL TDP-43
- T1 sequence (Q13148 whole entry): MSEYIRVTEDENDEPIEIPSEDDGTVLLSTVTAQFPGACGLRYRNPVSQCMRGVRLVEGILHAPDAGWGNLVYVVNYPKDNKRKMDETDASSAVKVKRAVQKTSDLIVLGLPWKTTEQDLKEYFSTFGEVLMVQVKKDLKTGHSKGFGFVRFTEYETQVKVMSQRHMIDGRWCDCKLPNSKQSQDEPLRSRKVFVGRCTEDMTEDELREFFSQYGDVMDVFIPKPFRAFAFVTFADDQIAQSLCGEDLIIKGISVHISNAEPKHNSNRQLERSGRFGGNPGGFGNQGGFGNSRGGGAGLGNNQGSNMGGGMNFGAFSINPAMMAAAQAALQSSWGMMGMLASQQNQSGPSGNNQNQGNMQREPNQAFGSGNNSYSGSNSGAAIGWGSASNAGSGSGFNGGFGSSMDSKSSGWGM
- Test protocol: SPR Biacore 8K, soluble TDP-43 immobilized on CM5, mAb injected, single-cycle kinetics
Observable: koff (s⁻¹)

1) hACI-7069-633B12-Ab1_H28L22 (antibody, V domains shown) VH: EVQLVQSGAEVKKPGATVKISCKVSGFTFTEYSMHWVQQAPGKGLEWMGGINPNNGGTSYNQKFKGRVTITADTSTDTAYMELSSLRSEDTAVYYCARESWGQGTTVTVSS VL: DIVMTQSPLSLPVTPGEPASISCKSSQSLLHSDGKTYLNWLLQKPGQSPKRLIYLVSKLDSRVPDRFSGSGSGTDFTLKISRVEAEDVGVYYCWQGTHFPHTFGQGTKLEIK; 3.4e-05
2) hACI-7069-633B12-Ab1_H32L27 (antibody, V domains shown) VH: EVQLVQSGAEVKKPGATVKISCKVSGFTFTEYSMHWVQQAPGKGLEWMGGINPQNAGTSYNQKFQGRVTITADTSTDTAYMELSSLRSEDTAVYYCARESWGQGTTVTVSS VL: DIVMTQSPLSLPVTPGEPASISCKSSQSLLHSDGKTYLNWLLQKPGQSPQRLIYLVSKLDSRVPDRFSGSGSGTDFTLKISRVEAEDVGVYYCFQGTHFPHTFGQGTKLEIK; 5.2e-06
3) hACI-7069-633B12-Ab1_H28L23 (antibody, V domains shown) VH: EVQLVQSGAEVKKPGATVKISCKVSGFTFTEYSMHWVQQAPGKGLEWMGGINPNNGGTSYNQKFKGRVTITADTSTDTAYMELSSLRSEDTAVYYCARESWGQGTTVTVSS VL: DVVMTQSPLSLPVTPGEPASISCKSSQSLLHSDGKTYLNWLLQKPGQSPQRLIYLVSKLDSRVPDRFSGSGSGTDFTLKISRVEAEDVGVYYCWQGTHFPHTFGQGTKLEIK; 2.6e-05
